# System: Iron-induced Lipid Peroxidation in Rat Brain Homogenates
# measurement_description: Assay of lipid peroxidation (TBA method)
# Format: biochemical, Wistar rats
# conditions: 0.5 mM; Table 2; Mean ± S.E., n = 4
reported_property: Inhibition % (0.5 mM) (%)

molecule	target_of_assay	numeric_value
O=C1c2cccc(Cl)c2C(OCc2ccccc2)c2cccc(Cl)c21 (centres unmarked) [Compound 3g]	Iron-induced Lipid Peroxidation in Rat Brain Homogenates	16
CCCOC1c2cccc(Cl)c2C(=O)c2cccc(Cl)c21 (centres unmarked) [Compound 3c]	Iron-induced Lipid Peroxidation in Rat Brain Homogenates	29
Cc1ccc(NC2c3cccc(Cl)c3C(=O)c3cccc(Cl)c32)cc1 (centres unmarked) [Compound 4d]	Iron-induced Lipid Peroxidation in Rat Brain Homogenates	100
CC(C)COC1c2cccc(Cl)c2C(=O)c2cccc(Cl)c21 (centres unmarked) [Compound 3f]	Iron-induced Lipid Peroxidation in Rat Brain Homogenates	38
CC(C)OC1c2cccc(Cl)c2C(=O)c2cccc(Cl)c21 (centres unmarked) [Compound 3d]	Iron-induced Lipid Peroxidation in Rat Brain Homogenates	13

----------
# Test system: Iron-induced Lipid Peroxidation in Rat Brain Homogenates
# measurement_description: Assay of lipid peroxidation (TBA method)
# Format: biochemical, Wistar rats
# conditions: 0.005 mM; Table 3; Mean ± S.E., n = 4
# Procedure: The inhibitory effect on lipid peroxidation of these compounds were evaluated with rat brain phospholipid liposomes which provide an ideal model system for lipid peroxidation studies by Teng C. M., et. al., Eur. J. Pharmacol., vol. 303, pp. 129-139 (1996). Assay of Lipid Peroxidation. Rat brain homogenate was prepared from the brains of freshly killed Wistar rats and its peroxidation in the presence of iron ions was measured by the thiobarbituric acid (TBA) method as described. […]
Structures can show the parent of a compound that is named as a salt.
Reported Inhibition (%) 0.005 mM values are given for each entry in this list.

compound	target_of_assay	unit_name	Inhibition (%) 0.005 mM
O=C1O[C@H]([C@@H](O)CO)C(O)=C1O [ascorbic acid, reference compound]	Iron-induced Lipid Peroxidation in Rat Brain Homogenates	%	7
Cc1ccc(NC2c3cccc(Cl)c3C(=O)c3cccc(Cl)c32)cc1 (centres unmarked)	Iron-induced Lipid Peroxidation in Rat Brain Homogenates	%	33
Cc1cccc(NC2c3cccc(Cl)c3C(=O)c3cccc(Cl)c32)c1 (centres unmarked)	Iron-induced Lipid Peroxidation in Rat Brain Homogenates	%	23
O=C1c2c(O)ccc(O)c2C(=O)c2c(NCCNCCO)ccc(NCCNCCO)c21 [mitoxantrone-HCl, reference compound]	Iron-induced Lipid Peroxidation in Rat Brain Homogenates	%	10
Cc1c(C)c2c(c(C)c1O)CC[C@@](C)(CCC[C@H](C)CCC[C@H](C)CCCC(C)C)O2 [(+)-α-tocopherol, reference compound]	Iron-induced Lipid Peroxidation in Rat Brain Homogenates	%	0

----------
# Test system: Human Oral Epidermoid Carcinoma Cells (KB cell line)
# measurement_description: Cytotoxic activity test (cell proliferation assay), KB cells
# Format: cell-based
# conditions: 50% inhibition of cellular growth following 48 h of drug exposure
Where a name gives a salt, the structure may show the parent alone.
reported_property: IC50 (µM)

compound	numeric_value
CC(C)OC1c2cccc(Cl)c2C(=O)c2cccc(Cl)c21 (stereo not drawn)	21.8
O=C1c2cccc(Cl)c2C(OCc2ccccc2)c2cccc(Cl)c21 (stereo not drawn)	93.4
CCCCOC1c2cccc(Cl)c2C(=O)c2cccc(Cl)c21 (stereo not drawn)	29.5
CCN(CC)C1c2cccc(Cl)c2C(=O)c2cccc(Cl)c21 (stereo not drawn)	17.2
CCCOC1c2cccc(Cl)c2C(=O)c2cccc(Cl)c21 (stereo not drawn)	1.8
Cc1cccc(NC2c3cccc(Cl)c3C(=O)c3cccc(Cl)c32)c1 (stereo not drawn)	9.5
Cc1ccc(NC2c3cccc(Cl)c3C(=O)c3cccc(Cl)c32)cc1 (stereo not drawn)	11.3
O=C1c2c(O)ccc(O)c2C(=O)c2c(NCCNCCO)ccc(NCCNCCO)c21 [mitoxantrone-HCl, reference compound]	1.7
CCOC1c2cccc(Cl)c2C(=O)c2cccc(Cl)c21 (stereo not drawn)	6.1
COC1c2cccc(Cl)c2C(=O)c2cccc(Cl)c21 (stereo not drawn)	8.8
Cc1ccccc1NC1c2cccc(Cl)c2C(=O)c2cccc(Cl)c21 (stereo not drawn)	3.4
CC(C)COC1c2cccc(Cl)c2C(=O)c2cccc(Cl)c21 (stereo not drawn)	14.7

// provenance: patent US6596774B1
